biological target: Recombinant human PDK1 enzyme (aa 52-556) (Homo sapiens (Human)); assay: PDK1 kinase assay; conditions: in vitro kinase assay, His6-PDK1 (aa 52-556), PDKtide, P33-ATP
Sequence (O15530 52-556): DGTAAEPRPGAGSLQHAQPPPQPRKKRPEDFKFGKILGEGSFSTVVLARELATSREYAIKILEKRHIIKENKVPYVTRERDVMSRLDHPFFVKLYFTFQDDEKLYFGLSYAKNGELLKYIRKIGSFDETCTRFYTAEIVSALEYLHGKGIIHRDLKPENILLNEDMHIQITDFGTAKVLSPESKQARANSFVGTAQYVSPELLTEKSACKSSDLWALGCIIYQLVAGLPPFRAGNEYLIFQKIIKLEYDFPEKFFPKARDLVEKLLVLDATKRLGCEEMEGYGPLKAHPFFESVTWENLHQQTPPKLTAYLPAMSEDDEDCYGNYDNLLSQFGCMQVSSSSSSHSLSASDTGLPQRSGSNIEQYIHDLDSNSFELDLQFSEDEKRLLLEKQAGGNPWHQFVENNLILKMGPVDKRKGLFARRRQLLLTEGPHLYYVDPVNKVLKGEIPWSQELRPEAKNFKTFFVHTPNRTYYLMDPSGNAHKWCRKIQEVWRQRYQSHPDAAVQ
Category key, based on recorded IC50: lower bin = under 10 nM, middle bin = from 10 nM up to 50 nM, upper bin = 50 nM and over

Example entries begin here.
| molecule | class assignment |
| --- | --- |
| O=C(NCC#Cc1ccc2nccc(OC3CCNCC3)c2c1)c1cccn(Cc2ccc(F)c(F)c2)c1=O | middle bin |
| O=C(NCC#Cc1ccc2ncnc(NCCCn3ccnc3)c2c1)c1cncn(Cc2ccc(F)c(F)c2)c1=O | upper bin |
| CN1CCN(CCCOc2ccnc3ccc(C#CCNC(=O)c4cncn(Cc5ccc(F)c(F)c5)c4=O)cc23)CC1 | middle bin |
| CCOc1ccnc2ccc(C#CCNC(=O)c3cncn(Cc4ccc(F)c(F)c4)c3=O)cc12 | middle bin |
| CN(c1ccccc1)c1ncnc2ccc(C#CCNC(=O)c3cncn(Cc4ccc(F)c(F)c4)c3=O)cc12 | middle bin |

Field: next molecule
Query: Into which bin does this molecule go? CN(C)CCCOc1ncnc2ccc(C#CCNC(=O)c3cncn(Cc4ccc(F)c(F)c4)c3=O)cc12
Reply: upper bin
